system: human ether-à-go-go-related gene (hERG) potassium channel (human);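 further: peak tail current of the secondary pulse compared with the same well before compound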
protocol.notes: primary screen, population patch clamp on CHO cells stably expressing hERG; higher = less effect of the substance
In all, about 310,000 compounds went through this assay and about 14,000 (4.5%) showed an effect of 50% or more. The effect is printed as a negative number. Many of the other results were omitted from the sample, so strong results are more common in it than they were.
# label = t if hERG current change (%, negative = inhibition) at 10uM >= -40% else f

{"compound": "COC(=O)c1cc(C#N)c(OC(C)C)nc1C", "assigned.class": "t"}
{"compound": "Cc1nc2cc(-c3ccccc3)nn2c(C)c1CCC(=O)N1CCC2(CC1)OCCO2", "assigned.class": "f"}
{"compound": "CCN1CCN(CCCOc2ccccc2-c2ccccc2)CC1.O=C(O)C(=O)O", "assigned.class": "f"}
{"compound": "Cc1nc2cc(-c3cccc(F)c3)nn2c(C)c1CCC(=O)N1CCN(c2ccccn2)CC1", "assigned.class": "t"}
{"compound": "Cc1nc2nc(C)c(CCC(=O)N3CCN(c4ccccn4)CC3)c(C)n2n1", "assigned.class": "f"}
{"compound": "Cc1nc2cc(-c3ccccc3)nn2c(C)c1CCC(=O)N1CCN(c2ccccc2)CC1", "assigned.class": "f"}
{"compound": "C=CCOC(=O)C1=C(C)NC(SCC(=O)N(CC)CC)=C(C#N)C1c1ccco1 (centres unmarked)", "assigned.class": "f"}
{"compound": "O=C(O)C(=O)O.c1ccc(-c2ccccc2OCCCN2CCCC2)cc1", "assigned.class": "f"}
{"compound": "O=C(O)C(=O)O.c1ccc(-c2ccccc2OCCCN2CCOCC2)cc1", "assigned.class": "t"}
{"compound": "Cc1nc2cc(-c3cccc(F)c3)nn2c(C)c1CCC(=O)NC(C)c1ccc2c(c1)OCCO2 (centres unmarked)", "assigned.class": "f"}
{"compound": "Cc1ccccc1C(=O)Nc1ccnn1C1CCN(Cc2cccnc2)CC1", "assigned.class": "f"}
{"compound": "COc1ccc2[nH]c3c(N4CCN(Cc5ccc6c(c5)OCO6)CC4)ncnc3c2c1", "assigned.class": "t"}
{"compound": "CC(=O)c1ccccc1OCCCN1CCCCC1.O=C(O)C(=O)O", "assigned.class": "t"}
{"compound": "Cc1ccccc1N(CC(=O)NCC1CCCO1)C(=O)C1(C)CC(=O)N=C2C=CC=CN21 (centres unmarked)", "assigned.class": "t"}
{"compound": "CCc1ccccc1OCCCCN1CCCCC1.O=C(O)C(=O)O", "assigned.class": "t"}
{"compound": "CC(=O)c1ccc(-c2ccc(/C=C(/Sc3n[nH]c(C)n3)C(=O)O)o2)cc1", "assigned.class": "f"}
{"compound": "CCN1CCN(CCOc2ccccc2-c2ccccc2)CC1.O=C(O)C(=O)O", "assigned.class": "t"}
{"compound": "Cc1nc2cc(-c3ccccc3)nn2c(C)c1CCC(=O)NC(C)c1ccc2c(c1)OCCO2 (centres unmarked)", "assigned.class": "f"}
{"compound": "O=C(CNc1n[nH]c(=O)[nH]c1=O)N/N=C/c1ccccc1", "assigned.class": "t"}
{"compound": "Cl.OCCN1CCN(CCOc2ccccc2-c2ccccc2)CC1", "assigned.class": "t"}

---

system: human ether-à-go-go-related gene (hERG) potassium channel (human);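 further: peak tail current of the secondary pulse compared with the same well before compound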
protocol.notes: primary screen, population patch clamp on CHO cells stably expressing hERG; higher = less effect of the substance
About 14,000 (4.5%) of roughly 310,000 compounds showed an effect of 50% or more. Effects have a minus sign here. The sample holds strong results, similar compounds and a random draw of the others, so the mix is not that of the screen.
Assign 1 to entries whose hERG current change (%, negative = inhibition) at 10uM meets or exceeds -10%; assign -1 to the rest.

{"compound": "Cc1ccc(NC(=O)c2cc(S(=O)(=O)N3CCCCC3)ccc2N2CCOCC2)cc1F", "assigned.class": -1}
{"compound": "CC(C)C(C(=O)NC1CCCCC1)N(CC1CCCO1)C(=O)CNS(=O)(=O)c1ccc(F)cc1 (centres unmarked)", "assigned.class": 1}
{"compound": "COc1ccc(OC)c(Nc2nc(C)nc3c2oc2ccccc23)c1", "assigned.class": 1}
{"compound": "COc1ccc(S(=O)(=O)N2CCCCC2)cc1NC(=O)c1cc([N+](=O)[O-])ccc1N1CCOCC1", "assigned.class": -1}
{"compound": "Cc1ccc(C)c(NC(=O)c2cc(S(=O)(=O)N3CCCCC3)ccc2N2CCOCC2)c1", "assigned.class": -1}
{"compound": "Cc1ccc(S(=O)(=O)NCC(=O)N(CC2CCCO2)C(C(=O)NC2CCCCC2)C(C)C)cc1 (centres unmarked)", "assigned.class": -1}
{"compound": "CCN(CC)S(=O)(=O)c1cc(NC(=O)c2cc([N+](=O)[O-])ccc2N2CCOCC2)ccc1C", "assigned.class": -1}
{"compound": "Cc1ccc(S(=O)(=O)NCC(=O)N(CC2CCCO2)C(C(=O)NC2CCCC2)C(C)C)cc1 (centres unmarked)", "assigned.class": 1}

---

system: human ether-à-go-go-related gene (hERG) potassium channel (human, UniProt Q12809);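 further: peak tail current of the secondary pulse compared with the same well before compound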
Sequence (Q12809 whole entry, looked up): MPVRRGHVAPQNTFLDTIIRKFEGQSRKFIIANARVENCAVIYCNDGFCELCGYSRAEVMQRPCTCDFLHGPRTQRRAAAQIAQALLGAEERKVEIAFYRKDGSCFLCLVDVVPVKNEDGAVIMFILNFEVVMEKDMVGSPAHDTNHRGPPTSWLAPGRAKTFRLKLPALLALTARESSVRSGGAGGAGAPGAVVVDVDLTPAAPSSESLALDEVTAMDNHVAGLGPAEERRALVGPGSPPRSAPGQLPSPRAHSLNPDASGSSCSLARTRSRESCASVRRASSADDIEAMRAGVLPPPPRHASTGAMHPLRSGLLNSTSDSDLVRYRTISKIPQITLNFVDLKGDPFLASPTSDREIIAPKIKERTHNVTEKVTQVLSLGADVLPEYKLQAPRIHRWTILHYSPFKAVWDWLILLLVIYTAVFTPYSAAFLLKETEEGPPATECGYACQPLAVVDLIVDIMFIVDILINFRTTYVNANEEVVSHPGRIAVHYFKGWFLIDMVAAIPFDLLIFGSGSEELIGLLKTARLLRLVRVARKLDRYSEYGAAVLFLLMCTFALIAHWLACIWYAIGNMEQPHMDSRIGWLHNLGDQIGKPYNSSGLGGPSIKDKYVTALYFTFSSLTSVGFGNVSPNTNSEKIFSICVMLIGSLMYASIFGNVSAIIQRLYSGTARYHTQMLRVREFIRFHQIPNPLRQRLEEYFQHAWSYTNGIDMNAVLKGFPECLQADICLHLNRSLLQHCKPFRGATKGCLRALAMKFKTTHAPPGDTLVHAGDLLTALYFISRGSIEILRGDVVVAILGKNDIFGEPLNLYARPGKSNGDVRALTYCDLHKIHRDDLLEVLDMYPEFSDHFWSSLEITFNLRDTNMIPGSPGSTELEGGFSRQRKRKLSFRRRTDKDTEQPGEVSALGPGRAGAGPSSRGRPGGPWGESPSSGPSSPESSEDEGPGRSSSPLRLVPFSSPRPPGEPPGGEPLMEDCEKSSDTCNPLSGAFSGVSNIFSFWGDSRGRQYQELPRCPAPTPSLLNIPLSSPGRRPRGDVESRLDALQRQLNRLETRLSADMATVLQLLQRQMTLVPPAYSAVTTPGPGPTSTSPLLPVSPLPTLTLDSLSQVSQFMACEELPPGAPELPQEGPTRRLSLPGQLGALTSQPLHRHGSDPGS
protocol.notes: primary screen, population patch clamp on CHO cells stably expressing hERG; higher = less effect of the substance
The whole screen tested about 310,000 compounds, of which about 14,000 (4.5%) showed an effect of 50% or more. Effects have a minus sign here. Many of the other results were omitted from the sample, so strong results are more common in it than they were.
Catalogue of hERG current change (%, negative = inhibition) at 10uM readings, one per entry.
value.kind: hERG current change (%, negative = inhibition) at 10uM (%)

{"compound": "COc1ccc(NC(=O)c2cc3c(=O)n4ccccc4nc3n2C)cc1OC", "system": "human ether-à-go-go-related gene (hERG) potassium channel (human, UniProt Q12809)", "measured.result": 13.7}
{"compound": "CCOc1ccccc1NC(=O)NCc1ccco1", "system": "human ether-à-go-go-related gene (hERG) potassium channel (human, UniProt Q12809)", "measured.result": 8.52}
{"compound": "O=C(CNC(=O)OCc1ccccc1)Nc1ccc(Br)cc1C(=O)c1ccccc1Cl", "system": "human ether-à-go-go-related gene (hERG) potassium channel (human, UniProt Q12809)", "measured.result": -40.5}
{"compound": "O=C(CN1CCOCC1)NCC(=O)Nc1ccc(Br)cc1C(=O)c1ccccc1", "system": "human ether-à-go-go-related gene (hERG) potassium channel (human, UniProt Q12809)", "measured.result": -37.1}
{"compound": "CC(C(=O)Nc1ccc(Br)cc1C(=O)c1ccccc1)N1CCCCC1 (centres unmarked)", "system": "human ether-à-go-go-related gene (hERG) potassium channel (human, UniProt Q12809)", "measured.result": -24.8}

---

system: human ether-à-go-go-related gene (hERG) potassium channel (human, UniProt Q12809);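 further: peak tail current of the secondary pulse compared with the same well before compound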
protocol.notes: primary screen, population patch clamp on CHO cells stably expressing hERG; higher = less effect of the substance
Out of some 310,000 compounds screened, about 14,000 (4.5%) showed an effect of 50% or more. Effects have a minus sign here. The full list was thinned out, with strong results kept by preference.
Give 1.0 when the value for hERG current change (%, negative = inhibition) at 10uM is at least -20%. Give 0.0 when it is less.

{"compound": "O=C(c1cc(-c2ccccc2)nc2ccccc12)N1N=C(C(F)F)CC1(O)C(F)F (stereo not drawn)", "system": "human ether-à-go-go-related gene (hERG) potassium channel (human, UniProt Q12809)", "assigned.class": 1.0}
{"compound": "OCCOCCn1c(CCNc2nc(-c3ccc(Cl)cc3)cs2)nc2cc(Cl)c(Cl)cc21", "system": "human ether-à-go-go-related gene (hERG) potassium channel (human, UniProt Q12809)", "assigned.class": 1.0}
{"compound": "CCn1c(SCc2ccc(OC)cc2)nnc1-c1ccncc1", "system": "human ether-à-go-go-related gene (hERG) potassium channel (human, UniProt Q12809)", "assigned.class": 1.0}
{"compound": "O=C(c1ccco1)N1CCN(c2cc(C(F)(F)F)nc3ncnn23)CC1", "system": "human ether-à-go-go-related gene (hERG) potassium channel (human, UniProt Q12809)", "assigned.class": 1.0}
{"compound": "Nc1nc2c(c(=O)[nH]1)CN(Cc1ccccc1)CC2", "system": "human ether-à-go-go-related gene (hERG) potassium channel (human, UniProt Q12809)", "assigned.class": 1.0}
{"compound": "C=CCCN(Cc1ccccc1)S(=O)(=O)c1ccccc1Br", "system": "human ether-à-go-go-related gene (hERG) potassium channel (human, UniProt Q12809)", "assigned.class": 1.0}
{"compound": "Oc1cccc(/C=N/c2c(-c3ccco3)nc3ccccn23)c1", "system": "human ether-à-go-go-related gene (hERG) potassium channel (human, UniProt Q12809)", "assigned.class": 1.0}
{"compound": "CC(NC(=S)NCCc1ccccc1)C(c1cccs1)N1CCN(C)CC1 (stereo not drawn)", "system": "human ether-à-go-go-related gene (hERG) potassium channel (human, UniProt Q12809)", "assigned.class": 0.0}
{"compound": "Cl.Nc1c2c(nc3ccccc13)CCCC2", "system": "human ether-à-go-go-related gene (hERG) potassium channel (human, UniProt Q12809)", "assigned.class": 0.0}
{"compound": "C=CCOC(=O)C1=C[C@H](c2ccc(C(F)(F)F)cc2)[C@@H](CCCO)[C@H](OCC)O1", "system": "human ether-à-go-go-related gene (hERG) potassium channel (human, UniProt Q12809)", "assigned.class": 1.0}
{"compound": "O=C(c1cc(C2CC2)nc2ccccc12)N1N=C(C(F)F)CC1(O)C(F)F (stereo not drawn)", "system": "human ether-à-go-go-related gene (hERG) potassium channel (human, UniProt Q12809)", "assigned.class": 1.0}
{"compound": "COc1cc2c(cc1OC)C(CC(=O)O)N(C(=O)CC1CCCC1)CC2 (stereo not drawn)", "system": "human ether-à-go-go-related gene (hERG) potassium channel (human, UniProt Q12809)", "assigned.class": 1.0}
{"compound": "CCOC(=O)C1(CCOC)CCN(Cc2nc(C(C)C)cs2)CC1", "system": "human ether-à-go-go-related gene (hERG) potassium channel (human, UniProt Q12809)", "assigned.class": 1.0}
{"compound": "Nc1c2c(nc3ccccc13)CCN(Cc1ccccc1)C2", "system": "human ether-à-go-go-related gene (hERG) potassium channel (human, UniProt Q12809)", "assigned.class": 0.0}
{"compound": "Brc1ccc(C2Nc3cccc4cccc(c34)N2)s1", "system": "human ether-à-go-go-related gene (hERG) potassium channel (human, UniProt Q12809)", "assigned.class": 1.0}
{"compound": "Cc1cccc(C)c1NC(=O)CN(C)CC(=O)N(C)CC(=O)Nc1ccccc1Br", "system": "human ether-à-go-go-related gene (hERG) potassium channel (human, UniProt Q12809)", "assigned.class": 1.0}
{"compound": "O=C(c1cc([N+](=O)[O-])ccc1N1CCCC1)N1CCCC1", "system": "human ether-à-go-go-related gene (hERG) potassium channel (human, UniProt Q12809)", "assigned.class": 1.0}
{"compound": "Cc1csc(NC(=O)c2ccc3c(c2)OCO3)n1", "system": "human ether-à-go-go-related gene (hERG) potassium channel (human, UniProt Q12809)", "assigned.class": 1.0}
{"compound": "CC(C)(C)NC(=O)COc1coc(CN2CCN(Cc3ccccc3)CC2)cc1=O", "system": "human ether-à-go-go-related gene (hERG) potassium channel (human, UniProt Q12809)", "assigned.class": 1.0}
{"compound": "CCCCCN(C(=O)CCC(=O)OCCOc1ccccc1Cl)c1c(N)n(CCCC)c(=O)[nH]c1=O", "system": "human ether-à-go-go-related gene (hERG) potassium channel (human, UniProt Q12809)", "assigned.class": 0.0}
{"compound": "Nc1c2c(nc3ccccc13)CSCC2", "system": "human ether-à-go-go-related gene (hERG) potassium channel (human, UniProt Q12809)", "assigned.class": 0.0}
